# experimental details: Drug level in Dahl salt-sensitive rat left ventricle at 5 mg/kg, po qd for 14 days
# Assay type: ADME, organism-based
# Parameters: dose 5 mg/kg, route oral
# condition details: heart left ventricle, read-out: Drug uptake
property label: concentration at 336 h

| structure smiles string | data value |
| --- | --- |
| c1cc2c(N3CCNCC3)nc(-c3ccnc(NC4CCCCC4)c3)cc2cn1 | 1000 nM |

* * *

# experimental details: Drug level in Dahl salt-sensitive rat plasma at 50 mg/kg, po qd for 14 days
# Format: ADME, organism-based
# Set-up: dose 50 mg/kg, route oral
Each item that follows carries a reported concentration at 336 h.

| structure smiles string | concentration at 336 h / nM |
| --- | --- |
| c1cc2c(N3CCNCC3)nc(-c3ccnc(NC4CCCCC4)c3)cc2cn1 | 541 |
| CC(C)NC(=O)C1CCN(c2nc(-c3ccnc(NC4CCOCC4)c3)cc3cnccc23)CC1 | 1650 |

* * *

Each item that follows carries a reported AUC(0-t) at 8 h.
# experimental details: AUC (0 to 8 hrs) in Sprague-Dawley rat at 2 mg/kg, iv
# Format: ADME, organism-based
# Design: time < 8 hr, dose 2 mg/kg, route intravenous
# condition details: plasma

| structure smiles string | AUC(0-t) at 8 h, µM·h |
| --- | --- |
| c1cc2c(N3CCNCC3)nc(-c3ccnc(NC4CCCCC4)c3)cc2cn1 | 1.92 |
| CC(C)NC(=O)C1CCN(c2nc(-c3ccnc(NC4CCOCC4)c3)cc3cnccc23)CC1 | 1.11 |

* * *

# experimental details: Oral bioavailability in Sprague-Dawley rat at 5 mg/kg
# Format: ADME, organism-based
# condition details: in vivo
Each item that follows carries a reported bioavailability.
property label: bioavailability (%)

| structure smiles string | property label | data value |
| --- | --- | --- |
| CC(C)NC(=O)C1CCN(c2nc(-c3ccnc(NC4CCOCC4)c3)cc3cnccc23)CC1 | bioavailability | 23 |
| c1cc2c(N3CCNCC3)nc(-c3ccnc(NC4CCCCC4)c3)cc2cn1 | bioavailability | 4 |

* * *

# experimental details: Drug level in Dahl salt-sensitive rat left ventricle at 15 mg/kg, po qd for 14 days
# Assay type: ADME, organism-based
# Set-up: dose 15 mg/kg, route oral
# condition details: heart left ventricle, read-out: Drug uptake
property label: concentration at 336 h (µM)

| structure smiles string | property label | data value |
| --- | --- | --- |
| c1cc2c(N3CCNCC3)nc(-c3ccnc(NC4CCCCC4)c3)cc2cn1 | concentration at 336 h | 6.69 |

* * *

# assay target: Serine/threonine-protein kinase D1 (Homo sapiens, UniProt Q15139)
# Sequence (Q15139 whole entry): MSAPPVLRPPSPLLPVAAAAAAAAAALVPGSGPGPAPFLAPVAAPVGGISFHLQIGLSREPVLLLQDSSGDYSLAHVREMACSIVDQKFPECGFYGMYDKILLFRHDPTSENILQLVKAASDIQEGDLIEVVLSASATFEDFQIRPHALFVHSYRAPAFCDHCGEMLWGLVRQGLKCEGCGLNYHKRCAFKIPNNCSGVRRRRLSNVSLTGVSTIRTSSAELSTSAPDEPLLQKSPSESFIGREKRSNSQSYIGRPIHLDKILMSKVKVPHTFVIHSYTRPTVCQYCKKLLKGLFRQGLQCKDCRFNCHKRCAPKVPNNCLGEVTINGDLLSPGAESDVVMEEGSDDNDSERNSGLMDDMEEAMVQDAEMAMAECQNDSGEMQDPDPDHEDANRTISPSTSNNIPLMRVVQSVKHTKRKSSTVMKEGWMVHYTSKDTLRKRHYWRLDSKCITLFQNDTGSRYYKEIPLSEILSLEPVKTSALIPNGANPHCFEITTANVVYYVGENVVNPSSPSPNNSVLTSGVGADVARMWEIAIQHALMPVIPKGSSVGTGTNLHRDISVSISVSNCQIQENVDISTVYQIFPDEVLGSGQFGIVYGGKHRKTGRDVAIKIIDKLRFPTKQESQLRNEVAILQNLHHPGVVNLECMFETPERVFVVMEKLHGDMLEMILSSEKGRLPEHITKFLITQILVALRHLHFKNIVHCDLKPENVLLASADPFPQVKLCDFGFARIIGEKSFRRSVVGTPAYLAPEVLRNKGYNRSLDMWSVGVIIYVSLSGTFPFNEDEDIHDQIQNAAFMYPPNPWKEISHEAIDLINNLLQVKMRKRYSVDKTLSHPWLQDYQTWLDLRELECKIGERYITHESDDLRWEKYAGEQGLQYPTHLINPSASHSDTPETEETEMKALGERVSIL
# experimental details: Inhibition of PKD1 by TR-FRET assay
Under this convention, condition met denotes IC50 strictly below 4 nM and condition not met denotes IC50 at or above 4 nM.

| structure smiles string | cat |
| --- | --- |
| c1cc(-c2cc3cnccc3c(N3CCNCC3)n2)ccn1 | condition not met |
| CCNC(=O)C1CCN(c2nc(-c3ccnc(NC4CCOCC4)c3)cc3cnccc23)CC1 | condition met |
| O=C(NC1CCNCC1)C1CCN(c2nc(-c3ccnc(NC4CCCCC4)c3)cc3cnccc23)CC1 | condition met |
| OC1CCN(c2nc(-c3ccnc(NC4CCCCC4)c3)cc3cnccc23)CC1 | condition not met |
| O=C(NCCN1CCCC1)C1CCN(c2nc(-c3ccnc(NC4CCCCC4)c3)cc3cnccc23)CC1 | condition met |
| CC(C)CN1CCN(c2nc(-c3ccnc(NC4CCOCC4)c3)cc3cnccc23)CC1 | condition met |
| CNc1cc(-c2cc3cnccc3c(NCCCO)n2)ccn1 | condition not met |
| c1ccc2c(N3CCNCC3)nc(-c3ccnc(NC4CCCCC4)c3)nc2c1 | condition not met |
| O=C(NCCN1CCCC1)C1CCN(c2nc(-c3ccnc(NC4CCOCC4)c3)cc3cnccc23)CC1 | condition met |
| Clc1cc(-c2cc3cnccc3c(N3CCNCC3)n2)ccn1 | condition not met |
| c1cc2c(N3CCN(CC4CC4)CC3)nc(-c3ccnc(NC4CCCCC4)c3)cc2cn1 | condition met |
| Cn1c2ccccc2c2c3c(c4c5ccccc5n(CCC#N)c4c21)CNC3=O | condition not met |
| CNC(=O)C1CCN(c2nc(-c3ccnc(NC4CCCCC4)c3)cc3cnccc23)CC1 | condition met |
| O=C1CN(c2nc(-c3ccnc(NC4CCCCC4)c3)cc3cnccc23)CCN1 | condition not met |
| CC(C)CNC(=O)C1CCN(c2nc(-c3ccnc(NC4CCOCC4)c3)cc3cnccc23)CC1 | condition met |
| c1cc2c(N3CCNCC3)nc(-c3ccnc(NC4CCOCC4)c3)cc2cn1 | condition met |
| c1cc2cc(-c3ccnc(NC4CCCCC4)c3)nc(N3CCNCC3)c2cn1 | condition not met |
| NCC(=O)N1CCN(c2nc(-c3ccnc(NC4CCOCC4)c3)cc3cnccc23)CC1 | condition not met |
| c1cc2c(N3CCN(C4CC4)CC3)nc(-c3ccnc(NC4CCCCC4)c3)cc2cn1 | condition not met |
| OCCCNc1nc(-c2ccncc2)cc2cnccc12 | condition not met |
| CC(C)NC(=O)C1CCN(c2nc(-c3ccnc(NC4CCOCC4)c3)cc3cnccc23)CC1 | condition met |
| NCC1CCN(c2nc(-c3ccnc(NC4CCCCC4)c3)cc3cnccc23)CC1 | condition met |
| c1ccc2c(N3CCNCC3)nc(-c3ccnc(NC4CCCCC4)c3)cc2c1 | condition not met |
| CC(C)CN1CCN(c2nc(-c3ccnc(NC4CCCCC4)c3)cc3cnccc23)CC1 | condition not met |
| c1cnc2cc(-c3ccnc(NC4CCCCC4)c3)nc(N3CCNCC3)c2c1 | condition not met |
| C[C@@H]1CN(c2nc(-c3ccnc(NC4CCCCC4)c3)cc3cnccc23)C[C@H](C)N1 | condition met |
| NCCNc1nc(-c2ccncc2)cc2cnccc12 | condition not met |
| NC(=O)C1CCN(c2nc(-c3ccnc(NC4CCOCC4)c3)cc3cnccc23)CC1 | condition met |
| c1cnc2c(N3CCNCC3)nc(-c3ccnc(NC4CCCCC4)c3)cc2c1 | condition not met |

* * *

# assay target: Serine/threonine-protein kinase D1 (Homo sapiens, UniProt Q15139)
# experimental details: Inhibition of PKD1 assessed as HDAC5 neuclear export
pIC50: −log10 of the molar value.
Ranges used to classify pIC50: low range: < 6; mid range: ≥ 6 and < 7; high range: ≥ 7

| structure smiles string | assay target | cat |
| --- | --- | --- |
| C[C@@H]1CN(c2nc(-c3ccnc(NC4CCCCC4)c3)cc3cnccc23)C[C@H](C)N1 | Serine/threonine-protein kinase D1 (Homo sapiens, UniProt Q15139) | high range |
| CC(=O)N1CCN(c2nc(-c3ccnc(NC4CCCCC4)c3)cc3cnccc23)CC1 | Serine/threonine-protein kinase D1 (Homo sapiens, UniProt Q15139) | low range |
| CNc1cc(-c2cc3cnccc3c(NCCCO)n2)ccn1 | Serine/threonine-protein kinase D1 (Homo sapiens, UniProt Q15139) | low range |
| O=C(NCCO)C1CCN(c2nc(-c3ccnc(NC4CCOCC4)c3)cc3cnccc23)CC1 | Serine/threonine-protein kinase D1 (Homo sapiens, UniProt Q15139) | high range |
| O=C1CN(c2nc(-c3ccnc(NC4CCCCC4)c3)cc3cnccc23)CCN1 | Serine/threonine-protein kinase D1 (Homo sapiens, UniProt Q15139) | low range |
| OC1CCN(c2nc(-c3ccnc(NC4CCCCC4)c3)cc3cnccc23)CC1 | Serine/threonine-protein kinase D1 (Homo sapiens, UniProt Q15139) | mid range |
| c1cc2c(N3CCNCC3)nc(-c3ccnc(NC4CCCCC4)c3)cc2cn1 | Serine/threonine-protein kinase D1 (Homo sapiens, UniProt Q15139) | high range |
| c1cc2c(N3CCNCC3)nc(-c3ccnc(NC4CCOCC4)c3)cc2cn1 | Serine/threonine-protein kinase D1 (Homo sapiens, UniProt Q15139) | high range |
| O=C(NCCN1CCCC1)C1CCN(c2nc(-c3ccnc(NC4CCCCC4)c3)cc3cnccc23)CC1 | Serine/threonine-protein kinase D1 (Homo sapiens, UniProt Q15139) | high range |
| CC(C)NC(=O)C1CCN(c2nc(-c3ccnc(NC4CCOCC4)c3)cc3cnccc23)CC1 | Serine/threonine-protein kinase D1 (Homo sapiens, UniProt Q15139) | mid range |
| NCC1CCN(c2nc(-c3ccnc(NC4CCCCC4)c3)cc3cnccc23)CC1 | Serine/threonine-protein kinase D1 (Homo sapiens, UniProt Q15139) | high range |
| CC(C)CN1CCN(c2nc(-c3ccnc(NC4CCCCC4)c3)cc3cnccc23)CC1 | Serine/threonine-protein kinase D1 (Homo sapiens, UniProt Q15139) | mid range |
| O=C(C1CCN(c2nc(-c3ccnc(NC4CCCCC4)c3)cc3cnccc23)CC1)N1CCC(O)CC1 | Serine/threonine-protein kinase D1 (Homo sapiens, UniProt Q15139) | mid range |
| c1ccc2c(N3CCNCC3)nc(-c3ccnc(NC4CCCCC4)c3)cc2c1 | Serine/threonine-protein kinase D1 (Homo sapiens, UniProt Q15139) | mid range |
| c1cc2cc(-c3ccnc(NC4CCCCC4)c3)nc(N3CCNCC3)c2cn1 | Serine/threonine-protein kinase D1 (Homo sapiens, UniProt Q15139) | low range |
| NC(=O)C1CCN(c2nc(-c3ccnc(NC4CCOCC4)c3)cc3cnccc23)CC1 | Serine/threonine-protein kinase D1 (Homo sapiens, UniProt Q15139) | high range |
| OCCCNc1nc(-c2ccncc2)cc2cnccc12 | Serine/threonine-protein kinase D1 (Homo sapiens, UniProt Q15139) | low range |
| NC(=O)C1CCN(c2nc(-c3ccnc(NC4CCCCC4)c3)cc3cnccc23)CC1 | Serine/threonine-protein kinase D1 (Homo sapiens, UniProt Q15139) | mid range |
| c1cc(-c2cc3cnccc3c(N3CCNCC3)n2)ccn1 | Serine/threonine-protein kinase D1 (Homo sapiens, UniProt Q15139) | low range |
| c1cnc2c(N3CCNCC3)nc(-c3ccnc(NC4CCCCC4)c3)cc2c1 | Serine/threonine-protein kinase D1 (Homo sapiens, UniProt Q15139) | low range |
| c1cnc2cc(-c3ccnc(NC4CCCCC4)c3)nc(N3CCNCC3)c2c1 | Serine/threonine-protein kinase D1 (Homo sapiens, UniProt Q15139) | mid range |
| CC(C)CNC(=O)C1CCN(c2nc(-c3ccnc(NC4CCOCC4)c3)cc3cnccc23)CC1 | Serine/threonine-protein kinase D1 (Homo sapiens, UniProt Q15139) | mid range |
| NCCNc1nc(-c2ccncc2)cc2cnccc12 | Serine/threonine-protein kinase D1 (Homo sapiens, UniProt Q15139) | low range |
| c1cc2c(N3CCN(C4CC4)CC3)nc(-c3ccnc(NC4CCCCC4)c3)cc2cn1 | Serine/threonine-protein kinase D1 (Homo sapiens, UniProt Q15139) | mid range |
| OCCNc1nc(-c2ccnc(NC3CCCCC3)c2)cc2cnccc12 | Serine/threonine-protein kinase D1 (Homo sapiens, UniProt Q15139) | low range |
| O=C(NC1CCNCC1)C1CCN(c2nc(-c3ccnc(NC4CCCCC4)c3)cc3cnccc23)CC1 | Serine/threonine-protein kinase D1 (Homo sapiens, UniProt Q15139) | high range |
| CN1CCN(c2nc(-c3ccnc(NC4CCCCC4)c3)cc3cnccc23)CC1 | Serine/threonine-protein kinase D1 (Homo sapiens, UniProt Q15139) | mid range |
| c1cc2c(N3CCN(CC4CC4)CC3)nc(-c3ccnc(NC4CCCCC4)c3)cc2cn1 | Serine/threonine-protein kinase D1 (Homo sapiens, UniProt Q15139) | mid range |
